molecular target: Inhibitor of nuclear factor kappa-B kinase subunit beta (Homo sapiens, UniProt O14920); assay: Binding affinity to T7-phage-tagged IKKbeta by PCR analysis
Sequence (O14920 whole entry): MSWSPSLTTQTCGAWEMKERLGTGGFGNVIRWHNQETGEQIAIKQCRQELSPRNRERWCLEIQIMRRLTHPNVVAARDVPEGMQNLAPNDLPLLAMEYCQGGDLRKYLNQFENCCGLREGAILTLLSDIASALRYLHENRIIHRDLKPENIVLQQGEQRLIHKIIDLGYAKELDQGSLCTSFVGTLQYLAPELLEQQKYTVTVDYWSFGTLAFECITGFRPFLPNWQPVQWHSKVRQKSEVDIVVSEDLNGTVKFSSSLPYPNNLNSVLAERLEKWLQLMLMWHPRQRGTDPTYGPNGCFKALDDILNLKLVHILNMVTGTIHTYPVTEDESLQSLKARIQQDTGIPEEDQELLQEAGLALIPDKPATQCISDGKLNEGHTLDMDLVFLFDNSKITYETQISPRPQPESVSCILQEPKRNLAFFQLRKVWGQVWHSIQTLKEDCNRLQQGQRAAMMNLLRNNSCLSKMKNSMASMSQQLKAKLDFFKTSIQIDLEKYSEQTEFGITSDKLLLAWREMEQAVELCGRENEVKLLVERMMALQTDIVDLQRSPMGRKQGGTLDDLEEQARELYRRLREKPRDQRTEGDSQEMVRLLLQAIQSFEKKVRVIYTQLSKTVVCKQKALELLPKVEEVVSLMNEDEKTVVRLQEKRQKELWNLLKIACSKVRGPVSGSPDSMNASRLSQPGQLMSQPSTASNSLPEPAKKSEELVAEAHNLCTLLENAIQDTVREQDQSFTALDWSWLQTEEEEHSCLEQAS
pKd: −log10 of the molar value.
readout-type: pKd

Name the value of pKd reported for COC(=O)c1c(Cc2ccc(C(=O)NCCO)cc2)c(=O)c2ccc(Cl)cc2n1-c1ccccc1 when tested on Inhibitor of nuclear factor kappa-B kinase subunit beta (Homo sapiens, UniProt O14920).
< 5.00

---

target: Mitogen-activated protein kinase 12 (Homo sapiens, UniProt P53778); assay: Binding affinity to T7-phage-tagged P38gamma by PCR analysis
Sequence (P53778 whole entry): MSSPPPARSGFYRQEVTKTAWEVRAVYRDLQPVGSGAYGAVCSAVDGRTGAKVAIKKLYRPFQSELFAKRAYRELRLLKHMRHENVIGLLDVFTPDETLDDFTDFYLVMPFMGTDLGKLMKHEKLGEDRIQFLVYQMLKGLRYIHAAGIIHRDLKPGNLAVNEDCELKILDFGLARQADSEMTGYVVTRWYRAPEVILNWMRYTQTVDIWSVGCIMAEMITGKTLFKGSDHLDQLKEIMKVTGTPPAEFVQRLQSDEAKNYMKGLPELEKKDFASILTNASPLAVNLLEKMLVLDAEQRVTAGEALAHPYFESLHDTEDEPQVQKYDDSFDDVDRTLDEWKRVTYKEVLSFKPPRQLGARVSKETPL
readout-type: Kd

Please indicate Kd recorded for COC(=O)c1c(Cc2ccc(C(=O)NCCO)cc2)c(=O)c2ccc(Cl)cc2n1-c1ccccc1
> 10 µM

---

target: Mitogen-activated protein kinase 8 (Homo sapiens); test: Inhibition of human JNK1 alpha1 using GST-tagged ATF2 as substrate and [gamma33P]ATP incubated for 10 mins prior to substrate addition measured after 30 mins by scintillation counting
Sequence (P45983 whole entry): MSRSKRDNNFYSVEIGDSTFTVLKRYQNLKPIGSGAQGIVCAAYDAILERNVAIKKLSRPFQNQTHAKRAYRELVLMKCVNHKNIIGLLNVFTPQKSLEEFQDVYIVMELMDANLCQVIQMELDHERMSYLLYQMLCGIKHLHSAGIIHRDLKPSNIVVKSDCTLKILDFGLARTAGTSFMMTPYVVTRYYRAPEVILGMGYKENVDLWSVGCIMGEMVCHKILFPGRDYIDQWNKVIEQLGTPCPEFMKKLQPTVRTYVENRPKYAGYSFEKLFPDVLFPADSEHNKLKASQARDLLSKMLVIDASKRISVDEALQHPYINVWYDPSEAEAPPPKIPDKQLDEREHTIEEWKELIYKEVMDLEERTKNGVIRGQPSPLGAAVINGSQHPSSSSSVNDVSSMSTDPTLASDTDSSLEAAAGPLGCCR
readout-type: IC50 (nM)
Enter your answer as a number in nM; do not include the unit.

Known results for molecules:
• COC(=O)c1c(Cc2ccc(S(=O)(=O)N3CCNCC3)cc2)c(=O)c2ccc(Cl)cc2n1-c1ccccc1 = 30
• CNS(=O)(=O)c1ccc(Cc2c(C(=O)OC)n(-c3ccccc3)c3cc(Cl)ccc3c2=O)cc1 = 47
• COC(=O)c1c(Cc2ccc(S(C)(=O)=O)cc2)c(=O)c2ccc(C)nc2n1-c1cccc(N)c1 = 14
• CCNC(=O)c1ccc(Cc2c(C(=O)OC)n(-c3ccccc3)c3cc(Cl)ccc3c2=O)cc1 = 38
• COC(=O)c1c(CN2CCC(S(C)(=O)=O)CC2)c(=O)c2ccc(F)cc2n1-c1ccccc1 = 23

Let us examine a further case.
Please indicate IC50 recorded for COC(=O)c1c(Cc2ccc(C(=O)NCCO)cc2)c(=O)c2ccc(Cl)cc2n1-c1ccccc1
62

---

target: Mitogen-activated protein kinase 8 (Homo sapiens); test: Inhibition of human JNK1 alpha1 using GST-tagged ATF2 as substrate and [gamma33P]ATP incubated for 10 mins prior to substrate addition measured after 30 mins by scintillation counting
readout-type: pIC50
Here pIC50 is given on a logarithmic scale as minus log10 of the concentration in mol/L.

Known results for molecules:
• CCNC(=O)c1ccc(Cc2c(C(=O)OC)n(-c3ccccc3)c3nc(C)ccc3c2=O)cc1 = 7.35
• COC(=O)c1c(Cc2ccc(C(=O)NCCO)cc2)c(=O)c2ccc(C)nc2n1-c1ccccc1 = 7.52

Please indicate pIC50 recorded for O=c1c2ccc(Cl)cc2n(-c2ccccc2)c(=O)n1Cc1ccccc1
5.64

---

target: c-Jun N-terminal kinase, JNK (Homo sapiens, UniProt P45983+P53779+P45984); test: Inhibition of JNK in human SW1353 assessed as inhibition of TNFalpha-inuced c-Jun phosphorylation incubated for 30 mins prior to TNFalpha-induction measured after 20 mins by immunostaining method
readout-type: IC50 (nM)
Enter your answer as a number in nM; do not include the unit.

• COC(=O)c1c(CN2CCC(S(C)(=O)=O)CC2)c(=O)c2ccc(C)nc2n1-c1ccccc1 = 430

Please indicate IC50 recorded for COC(=O)c1c(CN2CCC(S(C)(=O)=O)CC2)c(=O)c2ccc(C(F)(F)F)nc2n1-c1ccccc1
4300

Please indicate IC50 recorded for COC(=O)c1c(Cc2ccc(S(=O)(=O)N3CCNCC3)cc2)c(=O)c2ccc(F)cc2n1-c1ccccc1
1700

Please indicate IC50 recorded for COC(=O)c1c(Cc2ccc(C(=O)NCCO)cc2)c(=O)c2ccc(C(F)(F)F)nc2n1-c1ccccc1
4300

---

experiment: Half life in dog at 3 mg/kg, iv; type: ADME, organism-based, Canis lupus familiaris; set-up: dose 3 mg/kg, route intravenous; details: in vivo
readout-type: half-life
The reply should consist of the numeric value with the unit placed after it.

Please indicate half-life recorded for COC(=O)c1c(Cc2ccc(C(=O)NCCO)cc2)c(=O)c2ccc(Cl)cc2n1-c1ccccc1
2.5 h

---

assay: […] bioavailability in ip dosed rat; assay type: ADME, organism-based; details: in vivo, intraperitoneal
readout-type: bioavailability (%)
Enter your answer as a number in %; do not include the unit.

Please indicate bioavailability recorded for COC(=O)c1c(Cc2ccc(C(=O)NCCO)cc2)c(=O)c2ccc(Cl)cc2n1-c1ccccc1
100

---

molecular target: Mitogen-activated protein kinase 7 (Homo sapiens, UniProt Q13164); test: Binding affinity to T7-phage-tagged MAPK7 by PCR analysis
Sequence (Q13164 whole entry): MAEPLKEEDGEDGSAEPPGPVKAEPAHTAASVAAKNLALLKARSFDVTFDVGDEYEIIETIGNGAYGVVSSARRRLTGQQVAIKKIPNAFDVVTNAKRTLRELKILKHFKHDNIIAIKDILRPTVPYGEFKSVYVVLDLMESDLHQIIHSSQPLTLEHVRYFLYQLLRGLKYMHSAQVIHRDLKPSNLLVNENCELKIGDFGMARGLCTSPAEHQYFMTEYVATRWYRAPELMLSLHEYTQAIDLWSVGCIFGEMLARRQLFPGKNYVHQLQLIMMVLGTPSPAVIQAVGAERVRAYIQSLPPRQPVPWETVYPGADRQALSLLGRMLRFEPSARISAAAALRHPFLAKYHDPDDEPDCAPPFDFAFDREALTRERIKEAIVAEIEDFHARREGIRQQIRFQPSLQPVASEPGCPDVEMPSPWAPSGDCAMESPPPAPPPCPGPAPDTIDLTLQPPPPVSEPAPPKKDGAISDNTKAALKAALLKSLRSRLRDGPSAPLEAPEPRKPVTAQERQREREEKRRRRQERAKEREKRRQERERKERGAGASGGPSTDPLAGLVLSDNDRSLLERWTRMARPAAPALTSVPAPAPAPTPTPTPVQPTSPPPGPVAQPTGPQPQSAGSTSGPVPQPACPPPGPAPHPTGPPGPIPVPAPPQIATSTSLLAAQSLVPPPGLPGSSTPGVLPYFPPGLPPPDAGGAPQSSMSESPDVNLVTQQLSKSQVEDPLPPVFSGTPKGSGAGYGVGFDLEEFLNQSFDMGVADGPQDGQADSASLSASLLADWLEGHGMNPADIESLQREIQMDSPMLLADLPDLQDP
readout-type: Kd

Please indicate Kd recorded for COC(=O)c1c(Cc2ccc(C(=O)NCCO)cc2)c(=O)c2ccc(Cl)cc2n1-c1ccccc1
> 10 µM

---

Below: a set of entries, each annotated with reported IC50.
target: c-Jun N-terminal kinase, JNK (Homo sapiens, UniProt P45983+P53779+P45984); assay: Inhibition of JNK in human SW1353 assessed as inhibition of TNFalpha-inuced c-Jun phosphorylation incubated for 30 mins prior to TNFalpha-induction measured after 20 mins by immunostaining method
The reply should consist of the numeric value with the unit placed after it.

Known results for compounds:
• COC(=O)c1c(Cc2ccc(C(=O)NCCO)cc2)c(=O)c2ccc(C)nc2n1-c1ccccc1 = 4200 nM
• COC(=O)c1c(CN2CCC(S(C)(=O)=O)CC2)c(=O)c2ccc(F)cc2n1-c1ccccc1 = 830 nM
• COC(=O)c1c(Cc2ccc(S(=O)(=O)CCO)cc2)c(=O)c2ccc(F)cc2n1-c1ccccc1 = 2500 nM

Name the value of IC50 reported for COC(=O)c1c(Cc2ccc(S(C)(=O)=O)cc2)c(=O)c2ccc(C)nc2n1-c1cccc(N)c1 when tested on c-Jun N-terminal kinase, JNK (Homo sapiens, UniProt P45983+P53779+P45984).
860 nM

Name the value of IC50 reported for COC(=O)c1c(Cc2ccc(C(=O)NCCO)cc2)c(=O)c2ccc(Cl)cc2n1-c1ccccc1 when tested on c-Jun N-terminal kinase, JNK (Homo sapiens, UniProt P45983+P53779+P45984).
3000 nM

Name the value of IC50 reported for COC(=O)c1c(Cc2ccc(S(=O)(=O)N3CCNCC3)cc2)c(=O)c2ccc(Cl)cc2n1-c1ccccc1 when tested on c-Jun N-terminal kinase, JNK (Homo sapiens, UniProt P45983+P53779+P45984).
1000 nM

Name the value of IC50 reported for CCNC(=O)c1ccc(Cc2c(C(=O)OC)n(-c3ccccc3)c3nc(C)ccc3c2=O)cc1 when tested on c-Jun N-terminal kinase, JNK (Homo sapiens, UniProt P45983+P53779+P45984).
4700 nM

Name the value of IC50 reported for COC(=O)c1c(Cc2ccc(S(=O)(=O)N3CCNCC3)cc2)c(=O)c2ccc(C)nc2n1-c1ccccc1 when tested on c-Jun N-terminal kinase, JNK (Homo sapiens, UniProt P45983+P53779+P45984).
560 nM

Name the value of IC50 reported for COC(=O)c1c(Cc2ccc(S(C)(=O)=O)cc2)c(=O)c2ccc(C(F)(F)F)nc2n1-c1ccccc1 when tested on c-Jun N-terminal kinase, JNK (Homo sapiens, UniProt P45983+P53779+P45984).
2700 nM

---

target: Death-associated protein kinase 2 (Homo sapiens)
Sequence (Q9UIK4 whole entry): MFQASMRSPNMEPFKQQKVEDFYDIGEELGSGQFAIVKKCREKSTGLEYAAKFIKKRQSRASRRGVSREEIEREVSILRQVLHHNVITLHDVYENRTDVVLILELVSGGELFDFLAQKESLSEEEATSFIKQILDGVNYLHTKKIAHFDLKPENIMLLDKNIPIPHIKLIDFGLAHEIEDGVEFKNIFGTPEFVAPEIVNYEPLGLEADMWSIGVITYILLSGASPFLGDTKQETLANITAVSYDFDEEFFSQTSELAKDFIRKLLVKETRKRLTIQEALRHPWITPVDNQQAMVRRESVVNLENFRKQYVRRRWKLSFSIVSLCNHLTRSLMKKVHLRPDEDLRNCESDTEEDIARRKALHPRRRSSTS
readout-type: Kd

Name the value of Kd reported for COC(=O)c1c(Cc2ccc(C(=O)NCCO)cc2)c(=O)c2ccc(Cl)cc2n1-c1ccccc1 when tested on Death-associated protein kinase 2 (Homo sapiens).
> 10 µM

---

Below: a set of entries, each annotated with reported Ratio.
tested on: Caco-2; test: Efflux ratio of permeability from apical to basal to basal to apical side of human Caco2 cells; format: ADME, cell-based

• COC(=O)c1c(Cc2ccc(C(=O)NCCO)cc2)c(=O)c2ccc(C)nc2n1-c1ccccc1 = 15
• COC(=O)c1c(Cc2ccc(C(=O)NCCO)cc2)c(=O)c2ccc(Cl)cc2n1-c1ccccc1 = 7
• COC(=O)c1c(CN2CCC(S(C)(=O)=O)CC2)c(=O)c2ccc(F)cc2n1-c1ccccc1 = 2

Let us examine a further case.
Please indicate Ratio recorded for COC(=O)c1c(Cc2ccc(S(=O)(=O)N3CCNCC3)cc2)c(=O)c2ccc(Cl)cc2n1-c1ccccc1
2

---

experiment: Solubility of the compound in phosphate buffer at pH 6.4; type: physicochemical
readout-type: solubility (µg/mL)
Enter your answer as a number in µg/mL; do not include the unit.

Known results for molecules:
• COC(=O)c1c(Cc2ccc(S(=O)(=O)N3CCNCC3)cc2)c(=O)c2ccc(F)cc2n1-c1ccccc1 = 37
• COC(=O)c1c(Cc2ccc(C(=O)NCCO)cc2)c(=O)c2ccc(Cl)cc2n1-c1ccccc1 = 8.5
• COC(=O)c1c(Cc2ccc(S(=O)(=O)N3CCNCC3)cc2)c(=O)c2ccc(Cl)cc2n1-c1ccccc1 = 23
• COC(=O)c1c(CN2CCC(S(C)(=O)=O)CC2)c(=O)c2ccc(F)cc2n1-c1ccccc1 = 34

Let us examine a further case.
Please indicate solubility recorded for COC(=O)c1c(Cc2ccc(C(=O)NCCO)cc2)c(=O)c2ccc(C)nc2n1-c1ccccc1
78

src = ChEMBL document CHEMBL2203077
